# SYSTEM: β-catenin/Tcf4 interaction (Homo sapiens (Human), UniProt P35222)
# Sequence (P35222 138-686): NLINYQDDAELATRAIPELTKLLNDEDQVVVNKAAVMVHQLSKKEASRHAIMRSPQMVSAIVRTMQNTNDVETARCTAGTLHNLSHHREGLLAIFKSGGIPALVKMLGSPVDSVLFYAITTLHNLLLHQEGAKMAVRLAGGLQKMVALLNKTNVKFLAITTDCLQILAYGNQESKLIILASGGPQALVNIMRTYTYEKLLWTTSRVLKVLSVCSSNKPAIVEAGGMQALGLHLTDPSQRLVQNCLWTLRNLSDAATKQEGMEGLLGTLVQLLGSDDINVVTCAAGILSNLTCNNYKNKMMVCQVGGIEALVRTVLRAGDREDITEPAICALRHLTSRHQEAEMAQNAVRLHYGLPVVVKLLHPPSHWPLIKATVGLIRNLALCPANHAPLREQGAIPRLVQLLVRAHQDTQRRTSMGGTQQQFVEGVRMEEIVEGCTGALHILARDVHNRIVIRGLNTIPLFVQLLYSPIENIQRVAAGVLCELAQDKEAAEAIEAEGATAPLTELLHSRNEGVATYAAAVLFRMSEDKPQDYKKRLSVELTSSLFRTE
# METHOD_DESCRIPTION: Fluorescence polarization (FP) competitive inhibition assay, β-catenin/Tcf4
# Format: binding
# TEST_SETTINGS: Table 2; mean ± standard deviation (n=3); read-out: Ki FP
REPORTED_ENDPOINT: pKi
// pKi is dimensionless: -log10 of concentration (M)

State the recorded pKi for this entry: `O=c1[nH]c(Cc2ccc3c(cnn3O)c2)no1` 3.90

Bench note: what pKi did COc1c(C[C@@H](C)OC(=O)Oc2ccc(O)cc2)c2c3c(C[C@@H](C)OC(=O)c4ccccc4)c(OC)c(=O)c4c(O)cc(OC)c(c5c(OC)cc(O)c(c1=O)c52)c43 [PKF115-584, reference compound] show? 4.75

State the recorded pKi for this entry: `O=c1[nH]c(Cc2ccc3c(c2)nnn3O)no1` 3.78
